Organism: Cavia porcellus
measurement-notes: Decrease in developed tension of the left atrium of guinea pig expressed as the negative inotropy.
Type: functional, Cardiac atrium
Parameters: concentration or dose not given beside the values
We label by threshold. Values of Activity strictly beneath 80% are yes (1). Values of 80% and up are no (0).

Example results:
# molecule, category-label
records = [
    ("COc1ccc(C(C#N)(CCCNC(c2ccccc2)c2ccccc2)C(C)C)cc1OC.Cl (centres undefined)", "yes (1)"),
    ("COc1ccc(C(C#N)(CCCN(C)C2c3ccccc3-c3ccccc32)C(C)C)cc1OC.Cl (centres undefined)", "yes (1)"),
]

## Task Bench note: check whether COc1ccc(C(C#N)(CC#CCN(C)CC23CC4CC(CC(C4)C2)C3)C(C)C)cc1OC.Cl (centres undefined) shows Activity below 80%
## Result yes (1)

## Task // repeat for `Cl.N#CC(CCCNC1c2ccccc2-c2ccccc21)(c1ccccc1)c1ccccc1` and report
## Result yes (1)

## Task Another molecule to look at: `Cl.N#CC(CCCNC(c1ccccc1)c1ccccc1)(c1ccccc1)c1ccccc1`
## Result no (0)

## Task What do we get for COc1ccc(C(C#N)(CC#CCNC2c3ccccc3-c3ccccc32)C(C)C)cc1OC.Cl (centres undefined) ?
## Result yes (1)

## Task Repeat with COc1ccc(C(C#N)(CCCNCC(c2ccccc2)c2ccccc2)C(C)C)cc1OC.Cl (centres undefined)
## Result no (0)
